Reference for the values: patent US20220040297A1

# test target: T1, CD3ε homodimer protein (human, UniProt P07766 23-126, limits assumed, sulfo-tag or biotin label in some ECL assays)
# T1 construct: also called human CD3ε homodimer protein; CD3 (CD3ε)
# T1 sequence (P07766 23-126 limits assumed): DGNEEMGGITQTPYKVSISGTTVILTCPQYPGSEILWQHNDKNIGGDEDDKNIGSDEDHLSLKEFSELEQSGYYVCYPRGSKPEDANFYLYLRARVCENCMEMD
# protocol details: SPR, CD3ε homodimer on chip;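 further: biacore SPR with antibody variants flowed as analyte over amine-coupled CD3ε homodimer on a CM chip, bound amount of each single-residue H chain variant over that of parent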
value type: ratio of amounts bound vs CE115HA000
Number only, no unit.

stdin: Provide ratio of amounts bound vs CE115HA000 value for the following binder: CE115HA000 Y58N (antibody, name in Kabat numbering, V domains shown) VH: QVQLVESGGGVVQPGRSLRLSCAASGFTFSNAWMHWVRQAPGKGLEWVAQIKAKSNNYATNYAESVKGRFTISRDDSKNSLYLQMNSLKTEDTAVYYCRYVHYGAYYGVDAWGQGTTVTVSS VL: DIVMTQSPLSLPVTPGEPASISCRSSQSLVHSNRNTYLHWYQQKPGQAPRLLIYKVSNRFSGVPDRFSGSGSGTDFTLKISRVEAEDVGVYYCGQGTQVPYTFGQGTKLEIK
stdout: 0.33

stdin: Provide ratio of amounts bound vs CE115HA000 value for the following binder: CE115HA000 N31R (antibody, name in Kabat numbering, V domains shown) VH: QVQLVESGGGVVQPGRSLRLSCAASGFTFSRAWMHWVRQAPGKGLEWVAQIKAKSNNYATYYAESVKGRFTISRDDSKNSLYLQMNSLKTEDTAVYYCRYVHYGAYYGVDAWGQGTTVTVSS VL: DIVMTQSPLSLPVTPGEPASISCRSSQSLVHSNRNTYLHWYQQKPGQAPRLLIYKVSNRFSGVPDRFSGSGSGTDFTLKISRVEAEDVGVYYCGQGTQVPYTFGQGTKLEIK
stdout: 1.14

stdin: Provide ratio of amounts bound vs CE115HA000 value for the following binder: CE115HA000 A56L (antibody, name in Kabat numbering, V domains shown) VH: QVQLVESGGGVVQPGRSLRLSCAASGFTFSNAWMHWVRQAPGKGLEWVAQIKAKSNNYLTYYAESVKGRFTISRDDSKNSLYLQMNSLKTEDTAVYYCRYVHYGAYYGVDAWGQGTTVTVSS VL: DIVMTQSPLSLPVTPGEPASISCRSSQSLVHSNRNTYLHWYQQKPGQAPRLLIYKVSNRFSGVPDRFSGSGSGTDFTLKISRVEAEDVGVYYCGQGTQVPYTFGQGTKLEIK
stdout: 0.8
